- Test system: HCT-15 colon
- assay.remarks: NCI-60 one-dose screen, 48 h (100 = growth as untreated, 0 = no growth, -100 = all killed)
- run.conditions: 10 µM unless noted
Compounds without any hit were thinned out: in the full panel of roughly 83,000, 20% have a hit.
readout.kind: growth (%)

compound: C/C(=N\NC(=O)CSc1nc2ccccc2c(=O)n1CCc1ccc(S(N)(=O)=O)cc1)c1ccc(Br)cc1
readout.kind: growth
display.unit: %
experimental.value: 94.7
//
compound: O/N=C/c1ccncc1
readout.kind: growth
display.unit: %
experimental.value: 104
//
compound: CCCCOC(=O)c1cc(O)c(O)c(O)c1
readout.kind: growth
display.unit: %
experimental.value: 49.1
//
compound: O=C(Nc1cccc(-n2ccc3c(NC(=O)c4ccccc4)nccc32)c1)c1ccc(Cl)c(Cl)c1
readout.kind: growth
display.unit: %
experimental.value: -62
//
compound: COc1ccc(-c2cnc(-c3ccncc3-c3cccc(OC)c3)o2)cc1
readout.kind: growth
display.unit: %
experimental.value: 7.4
//
compound: CCCCCCCCCCCCCCCCCC(=O)OCCCCCCCCCCCCC
readout.kind: growth
display.unit: %
experimental.value: 108
//
compound: COC1(OC)C2(Cl)CCC1(Cl)C(Cl)=C2Cl
readout.kind: growth
display.unit: %
experimental.value: 95
//
compound: CC1CCN(CCCCCOc2ccc3oc4ccc(Cl)cc4c(=O)c3c2)CC1
readout.kind: growth
display.unit: %
experimental.value: -21.5
//
compound: N/N=C(\C(=N\N)c1ccccc1)c1ccccc1
readout.kind: growth
display.unit: %
experimental.value: 104
//
compound: NC(CCC(=O)NC(CS)C(=O)NCC(=O)O)C(=O)O (stereo unspecified)
readout.kind: growth
display.unit: %
experimental.value: 101
//
compound: CCN1C(=O)N(CC)C2C1NN=c1s/c(=C\c3ccco3)c(=O)n12 (stereo unspecified)
readout.kind: growth
display.unit: %
experimental.value: 19.9

====

- Tested on: SK-MEL-5 melanoma
- assay.remarks: NCI-60 one-dose screen, 48 h (100 = growth as untreated, 0 = no growth, -100 = all killed)
- run.conditions: 10 µM unless noted
The panel holds about 83,000 compounds, 20% with a hit somewhere; the sample as a whole holds those more often.
Returns one of yes or no; yes when growth is >= 60%.

compound: COc1ccc(C(=O)OC2C(OC3C(O)COC(O[C@H]4C[C@H]5[C@@H]6CC=C7C[C@@H](O)CC[C@]7(C)[C@H]6CC[C@]5(C)[C@H]4[C@H](C)C(=O)CCC(C)C)C3OC(=O)C(C)C)OCC(O)C2O)cc1 (stereo not given in full)
category.label: no
//
compound: CCN(CC)c1ccc(/C=N/N=C(N)N)cc1
category.label: no
//
compound: O=C(Nc1ccccc1)c1cc2ccccc2s1
category.label: no
//
compound: Cc1c2c(cc3c1[nH]c1ccccc13)C=NCC2
category.label: yes
//
compound: CCN(CC)c1ccc(/C=N/NC(=O)C[N+](C)(C)C)cc1
category.label: yes

====

- Test system: K-562 leukemia
- assay.remarks: NCI-60 one-dose screen, 48 h (100 = growth as untreated, 0 = no growth, -100 = all killed)
- run.conditions: 10 µM unless noted
Compounds without any hit were thinned out: in the full panel of roughly 83,000, 20% have a hit. Calls of active or inactive are those of the source. How the source made its calls: active means growth percent below 10; inactive means the rest.
readout.kind: growth

compound: Cc1nn(-c2cccc(Cl)c2)c(C)c1N=Nc1ccc(Br)cc1
readout.kind: growth
experimental.value: 89.2% (inactive)

compound: CCCNCCC(C)=O
readout.kind: growth
experimental.value: 98.5% (inactive)

compound: COc1cc(C2CC(c3ccccc3)=NN2C=O)ccc1Oc1nc2c(c(=O)n(C)c(=O)n2C)n1C (stereo not given)
readout.kind: growth
experimental.value: 74.3% (inactive)

compound: C#C[C@]1(O)CC[C@H]2[C@@H]3CC=C4c5sc(-c6cccc(Br)c6)nc5CC[C@]4(C)[C@H]3CC[C@@]21C
readout.kind: growth
experimental.value: 6.54% (active)

compound: S=C(Cc1ccccc1)N1CCN(c2ccccc2Cl)CC1
readout.kind: growth
experimental.value: 89.8% (inactive)

====

- Tested on: EKVX NSCLC
- assay.remarks: NCI-60 one-dose screen, 48 h
- run.conditions: 10 µM unless noted
The panel holds about 83,000 compounds, 20% with a hit somewhere; the sample as a whole holds those more often. Calls of active or inactive are those of the source. Rule for the calls: active = growth percent below 10; inactive = the rest.
Labels: active, inactive

compound: CCN(CC)CCCCCCCCNc1c2ccc(Cl)cc2nc2ccc(OC)cc12
category.label: active
--
compound: O=C1CCCN1C(O)CCN(Cc1ccccc1)Cc1ccc(Cl)cc1 (stereo not drawn)
category.label: inactive
--
compound: COc1cc(Nc2ncccc2/C=C/C(=O)c2cc(OC)c(OC)c(OC)c2)cc(OC)c1OC
category.label: inactive
--
compound: Cc1c(C(=O)CCl)c(=O)n(-c2ccccc2)n1C
category.label: inactive
--
compound: CCCCn1cnc2c(SCc3ccc([N+](=O)[O-])cc3)nc(N)nc21
category.label: inactive
--
compound: Fc1cc(-c2cnc3nonc3n2)c(Cl)cc1Cl
category.label: inactive
--
compound: NC(=S)N1N=C(c2ccc(Cl)cc2)CC1c1cc2ccccc2[nH]c1=O (stereo not drawn)
category.label: inactive
--
compound: O=C(O)c1cc2cc(OCc3ccccc3)ccc2[nH]1
category.label: inactive
--
compound: CSc1ccc(/C=C2\C=C(CC(=O)NCc3ccc(C(=O)c4ccccc4)cc3)c3cc(F)ccc32)cc1
category.label: inactive
--
compound: O=C(c1ccccc1)C1OC1C(=O)c1ccccc1 (stereo not drawn)
category.label: inactive
--
compound: Cc1ccccc1C1CC(=O)c2ccccc2C1C (stereo not drawn)
category.label: inactive
--
compound: CC(C)CC(=O)C(CCc1ccccn1)C(C)C (stereo not drawn)
category.label: inactive
--
compound: COc1cc([N+](=O)[O-])cc(OC)c1OC
category.label: inactive
--
compound: Cc1ccc(OC2=C(C#N)C(=N)N3C(=NN2)Sc2c(C)ccc(C)c23)cc1
category.label: inactive
--
compound: S=C(Cc1ccccc1)N1CCN(c2ccccc2Cl)CC1
category.label: inactive
--
compound: CC(C)(C)c1nn(-c2ccccc2)c2c1C(=O)CSC(c1ccccc1Cl)N2 (stereo not drawn)
category.label: inactive
--
compound: CCN(CC)c1ccc(/C=N/NC(=O)c2ccc(S(C)(=O)=O)cc2)c(O)c1
category.label: inactive
--
compound: Cc1ccc([C@H]2c3[nH]c4ccccc4c3C[C@H]3C(=O)N(CCCCCCC(=O)NO)CC(=O)N23)cc1
category.label: inactive
--
compound: COc1cc(C)c(Cl)cc1C1=NN(c2ccc(S(N)(=O)=O)cc2)C(/C=C/c2ccccc2)C1 (stereo not drawn)
category.label: inactive
--
compound: CCN(CC)c1ccc(/C=N/NC(=O)C[N+](C)(C)C)cc1
category.label: inactive
--
compound: CCOC(=O)Nc1ccc2nc(Sc3ccc(Cl)cc3)sc2c1
category.label: inactive
--
compound: CN1C2CCC1/C(=C\c1ccc(Cl)cc1)C(=O)/C2=C/c1ccc(Cl)cc1
category.label: inactive
--
compound: COc1ccc(C2NC(=O)c3cc4c(cc3N2)OCO4)cc1 (stereo not drawn)
category.label: inactive
--
compound: C=C[C@H]1CCC/C=C/[C@@H]2C[C@H](O)C[C@H]2[C@H](O)/C=C/C(=O)O1
category.label: active
--
compound: Clc1ccc(C2=NN[C@H](c3cn(-c4ccccc4)nc3-c3ccccc3)C2)cc1
category.label: inactive
--
compound: Oc1ccc(-c2nc3ccccc3s2)cc1CN(Cc1ccccn1)Cc1ccccn1
category.label: active
--
compound: COc1cccc(-c2nc3sccn3c2-c2ccnc(NCCN3CCCN(C)S3(=O)=O)n2)c1
category.label: inactive
--
compound: CC(NC(=O)c1ccccc1)C(=O)Nc1ccccc1 (stereo not drawn)
category.label: inactive
--
compound: N/N=C(\C(=N\N)c1ccccc1)c1ccccc1
category.label: inactive
--
compound: CCCC(CCC)(C(N)=O)C(=O)O
category.label: inactive
--
compound: Cc1ccncc1NC=O
category.label: inactive
--
compound: C#CCO[C@H]1CC[C@H](OCC#C)[C@@H]2[C@H]1[C@H]1C[C@@H]3[C@@]4(C)CCC[C@@](C)(C(=O)OC)[C@@H]4CC[C@@]23C=C1C(C)C
category.label: inactive
--
compound: COc1cc(/C=N/NC(=O)Cn2c(-c3ccc(C)o3)nc3ccccc32)ccc1OCc1ccccc1
category.label: inactive
--
compound: O=C1/C(=C/N2N=C(c3ccc(Cl)cc3)CC2c2ccccc2O)SC(=S)N1c1cccc(C(F)(F)F)c1 (stereo not drawn)
category.label: inactive
--
compound: COc1cnc2c(c1)C(=O)c1c-2n(CCCNC(C)C)c(=O)c2cc(Cl)ccc12
category.label: active
--
compound: CC1=C(O)C(=O)CC1
category.label: inactive
--
compound: C=C1C(=O)O[C@H]2[C@H]1CC/C(COC(=O)NCc1c[nH]c3ccc(OC)cc13)=C\CC[C@@]1(C)O[C@@H]21
category.label: inactive
--
compound: CS(=O)(=O)c1ccc(C(=O)N/N=C/c2ccccc2O)cc1
category.label: inactive
--
compound: C[N+](C)(C)CCCCCCCCCC[N+](C)(C)C
category.label: inactive
--
compound: O=C(Nc1cccc(Cl)c1)Nc1ccccc1Cl
category.label: inactive
--
compound: CC1(C)CC(=O)c2cc3c(N)c(C(=O)Nc4ccc(Cl)cc4)sc3nc2C1
category.label: inactive
--
compound: C=C1C(=O)O[C@H]2[C@H]1CC/C(COC(=O)N[C@@H](Cc1c[nH]c3ccccc13)C(=O)OC)=C\CC[C@@]1(C)O[C@@H]21
category.label: inactive
--
compound: COc1cc(NC(=O)CSc2nc3ccc(Cl)cc3c(=O)n2Cc2ccccc2)cc(OC)c1OC
category.label: inactive
